Source: patent US20020111274A1

The following compounds are shown together with reported Postemergence herbicidal rating GALAP values.
System: GALAP Galium
test: Postemergence herbicidal evaluation, GALAP
Type: in vivo, Galium aparine
Set-up: scale not given here
experimentalSetup: 0.008 kg/ha, postemergence spray, rated about two-three weeks after treatment
Protocol: In this evaluation, seedling plants are grown in jiffy flats for about two weeks. The test compounds are dispersed in 80/20 acetone/water mixtures containing 1.0% SUN-IT® II, a methylated seed oil, in sufficient quantities to provide the equivalent of about 0.006 kg to 0.400 kg per hectare of active compound when applied to the plants through a spray nozzle operating at 40 psi for a predetermined time. […]
Give the value as a plain number.

Solved entries (count: 2):
compoundString	testSystem	Postemergence herbicidal rating GALAP
COC(=O)COc1ccc(C)c(-n2nnc3cc(F)c(-n4c(=O)cc(C(F)(F)F)n(C)c4=O)cc32)c1	GALAP Galium	0.0
CC(C)c1ccc(-n2nnc3cc(F)c(-n4c(=O)cc(C(F)(F)F)n(C)c4=O)cc32)cc1	GALAP Galium	2.0

Measured on GALAP Galium, COc1ccc(C)c(-n2nnc3cc(F)c(-n4c(=O)cc(C(F)(F)F)n(C)c4=O)cc32)c1 has a documented Postemergence herbicidal rating GALAP of 0.0

Measured on GALAP Galium, CCc1ccc(-n2nnc3cc(F)c(-n4c(=O)cc(C(F)(F)F)n(C)c4=O)cc32)cc1 has a documented Postemergence herbicidal rating GALAP of 2.0

Measured on GALAP Galium, COc1ccc(-n2nnc3cc(F)c(-n4c(=O)cc(C(F)(F)F)n(C)c4=O)cc32)c(C)c1 has a documented Postemergence herbicidal rating GALAP of 0.0

Measured on GALAP Galium, CCc1ccc(-n2nnc3cc(F)c(-n4c(=O)cc(C(F)(F)F)n(C)c4=O)cc32)cc1COC has a documented Postemergence herbicidal rating GALAP of 4.0

Measured on GALAP Galium, COc1ccc(Cl)cc1-n1nnc2cc(F)c(-n3c(=O)cc(C(F)(F)F)n(C)c3=O)cc21 has a documented Postemergence herbicidal rating GALAP of 1.0

* * *

Test system: ORYSAT Rice, Tebonnet
test: Preemergence herbicidal evaluation, ORYSAT
Assay type: in vivo, Oryza sativa, (L.)
Design: scale not given here
experimentalSetup: preemergence, rate 0.125 kg/ha
The following molecules are shown together with reported ORYSAT herbicidal rating values.
Give the value as a plain number.

C=CCOc1ccc(-n2nnc3cc(F)c(-n4c(=O)cc(C(F)(F)F)n(C)c4=O)cc32)c(C)c1 [Example 43] has a reported ORYSAT herbicidal rating of 0.0

COC(=O)C(C)Oc1ccc(C)cc1-n1nnc2cc(F)c(-n3c(=O)cc(C(F)(F)F)n(C)c3=O)cc21 (stereo not drawn) [Example 41] has a reported ORYSAT herbicidal rating of 4.0

CCc1cccc(-n2nnc3cc(F)c(-n4c(=O)cc(C(F)(F)F)n(C)c4=O)cc32)c1 [Example 29] has a reported ORYSAT herbicidal rating of 4.0

COc1ccc(Cl)cc1-n1nnc2cc(F)c(-n3c(=O)cc(C(F)(F)F)n(C)c3=O)cc21 [Example 30] has a reported ORYSAT herbicidal rating of 4.0

COc1ccc(-n2nnc3cc(F)c(-n4c(=O)cc(C(F)(F)F)n(C)c4=O)cc32)cc1 [Example 27] has a reported ORYSAT herbicidal rating of 6.0

Cc1ccc(O)c(-n2nnc3cc(F)c(-n4c(=O)cc(C(F)(F)F)n(C)c4=O)cc32)c1 [Example 31] has a reported ORYSAT herbicidal rating of 0.0

C=CCOc1ccc(C)cc1-n1nnc2cc(F)c(-n3c(=O)cc(C(F)(F)F)n(C)c3=O)cc21 [Example 42] has a reported ORYSAT herbicidal rating of 1.0

Cc1ccc(-n2nnc3cc(F)c(-n4c(=O)cc(C(F)(F)F)n(C)c4=O)cc32)cc1C [Example 23] has a reported ORYSAT herbicidal rating of 0.0

COC(=O)COc1ccc(-n2nnc3cc(F)c(-n4c(=O)cc(C(F)(F)F)n(C)c4=O)cc32)c(C)c1 [Example 39] has a reported ORYSAT herbicidal rating of 3.0
